Values from ChEMBL document CHEMBL3991601

Target: Dual specificity mitogen-activated protein kinase kinase 1 (Homo sapiens, UniProt Q02750); further: in the data inactive means no Kd found up to 30 µM
Sequence (Q02750 whole entry): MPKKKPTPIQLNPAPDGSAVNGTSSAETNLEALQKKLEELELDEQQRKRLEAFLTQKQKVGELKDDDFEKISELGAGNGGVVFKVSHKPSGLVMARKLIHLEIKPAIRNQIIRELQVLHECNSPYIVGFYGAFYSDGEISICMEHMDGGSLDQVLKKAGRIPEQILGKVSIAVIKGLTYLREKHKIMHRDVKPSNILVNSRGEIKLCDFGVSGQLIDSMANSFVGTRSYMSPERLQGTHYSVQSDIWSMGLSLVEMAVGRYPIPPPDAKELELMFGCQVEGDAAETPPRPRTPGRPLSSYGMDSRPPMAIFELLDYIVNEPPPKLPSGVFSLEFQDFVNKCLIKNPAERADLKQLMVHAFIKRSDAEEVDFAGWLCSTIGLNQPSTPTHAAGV
Active and inactive are the calls of the source.
Please reply with one of these outcomes: y for active, n for inactive

INSERT INTO assay_data (compound, system_name, assigned_class) VALUES
  ('COc1cc2ncnc3c2cc1OCCCCCN(C)Cc1ccc(Br)cc1N3 [JNJ-26483327]', 'Dual specificity mitogen-activated protein kinase kinase 1 (Homo sapiens, UniProt Q02750)', 'n');

(Q) Hey, what did the test say about CC[C@@](C)(Nc1ccnc(-c2c[nH]c3ncccc23)n1)C(=O)NCC(F)(F)F [DECERNOTINIB] ?
(A) n

(Q) What outcome does the record of this test show for CC(C)CC(=O)Nc1[nH]nc2c1CN(C(=O)C1CCN(C)CC1)C2(C)C [PHA-793887] ?
(A) n

(Q) Hello, I am checking results. What call was entered for COc1cc2ncnc(Nc3ccc(F)c(Cl)c3)c2cc1NC(=O)/C=C/CN1CCCCC1 [DACOMITINIB ANHYDROUS] ?
(A) n

(Q) Fill in: this test's call for COCCN1CCN(Cc2ccc(-c3n[nH]c4c3C(=O)c3c(NC(=O)NN5CCOCC5)cccc3-4)cc2)CC1 [RGB-286638] is ___
(A) n

(Q) What is the recorded call for this compound in the test? C[C@@H]1COC(Nc2ccc3ncnc(Nc4ccc(OCc5nccs5)c(Cl)c4)c3c2)=N1 [VARLITINIB]
(A) n

(Q) Short answer needed: outcome of this test for O=C(O)c1ccc2c(c1)nc(Nc1cccc(Cl)c1)c1ccncc12 [SILMITASERTIB] ?
(A) n

(Q) In this assay, the call recorded for O=C(Nc1ccc(OC(F)(F)F)cc1)c1sccc1NCc1ccnc2ccccc12 [OSI-930] was what?
(A) n
